ASSAY_DETAILS: Single dose oral pharmacokinetic study
Type: in vivo
ASSAY_SETUP: mouse, mice, 30 mg/kg, plasma, read-out: Mice oral PK @30 mg/kg Cmax
PROPERTY_MEASURED: Cmax (ng/mL)

COMPOUND	PROPERTY_MEASURED	OBSERVED_MEASUREMENT
Cc1nnc(C(C)C)n1C1CCN(C(=O)[C@]23CC[C@@H](C4(C)CC4)[C@@H]2[C@H]2CC[C@@H]4[C@@]5(C)CC[C@H](OC(=O)CC(C)(C)C(=O)O)C(C)(C)[C@@H]5CC[C@@]4(C)[C@]2(C)CC3)CC1 [Compound 69]	Cmax	16700
C=C(C)[C@@H]1CC[C@]2(C(=O)N3C[C@H](OC)C[C@H]3c3nc(-c4ccccc4)c[nH]3)CC[C@]3(C)[C@H](CC[C@@H]4[C@@]5(C)CC[C@H](OC(=O)[C@H]6C[C@@H](C(=O)O)C6(C)C)C(C)(C)[C@@H]5CC[C@]43C)[C@@H]12 [Compound 32]	Cmax	13900
CC1([C@@H]2CC[C@]3(C(=O)N4CCC[C@H]4c4ncc(-c5cccc(F)c5)[nH]4)CC[C@]4(C)[C@H](CC[C@@H]5[C@@]6(C)CC[C@H](OC(=O)[C@H]7C[C@@H](C(=O)O)C7(C)C)C(C)(C)[C@@H]6CC[C@]54C)[C@@H]23)CC1 [Compound 50]	Cmax	13900
C=C(C)[C@@H]1CC[C@]2(C(=O)N3CCC[C@H]3c3nnc(-c4ccccc4)[nH]3)CC[C@]3(C)[C@H](CC[C@@H]4[C@@]5(C)CC[C@H](OC(=O)[C@H]6C[C@@H](C(=O)O)C6(C)C)C(C)(C)[C@@H]5CC[C@]43C)[C@@H]12 [Compound 24]	Cmax	12200

---

Let's look at some compounds and their measured Cmax.
ASSAY_DETAILS: Single dose oral pharmacokinetic study
Format: in vivo
ASSAY_SETUP: mouse, mice, 30 mg/kg, plasma, read-out: Mice oral PK @30 mg/kg Cmax
Protocol: The test item was administered through oral route to animals (rat/mice) at 30 mg/kg dose in a suitable vehicle at 10 ml/kg dose volume. Blood samples (˜50 uL at each time point) were collected from retro-orbital plexus using K3 EDTA as anticoagulant in eppend; orf tubes at defined time intervals under light ether anesthesia. […] Sample analysis: Test samples were analyzed using LC-MS-MS after developing fit-for-purpose method for each of test compound.

STRUCTURE	Cmax, ng/mL
CC(C)(CC(=O)O)CC(=O)O[C@H]1CC[C@]2(C)[C@H]3CC[C@@H]4[C@H]5[C@H](C6(C)CC6)CC[C@]5(C(=O)N5CCC[C@H]5c5ncc(-c6ccccn6)[nH]5)CC[C@@]4(C)[C@]3(C)CC[C@H]2C1(C)C	4470
C=C(C)[C@@H]1CC[C@]2(C(=O)N3CCC[C@H]3c3ncc(-c4ccc(C(F)(F)F)cc4)[nH]3)CC[C@]3(C)[C@H](CC[C@@H]4[C@@]5(C)CC[C@H](OC(=O)[C@H]6C[C@@H](C(=O)O)C6(C)C)C(C)(C)[C@@H]5CC[C@]43C)[C@@H]12	3100
C=C(C)[C@@H]1CC[C@]2(C(=O)N3CCC[C@H]3c3nc(C(C)(C)C)co3)CC[C@]3(C)[C@H](CC[C@@H]4[C@@]5(C)CC[C@H](OC(=O)[C@H]6C[C@@H](C(=O)O)C6(C)C)C(C)(C)[C@@H]5CC[C@]43C)[C@@H]12	13200
C=C(C)[C@@H]1CC[C@]2(C(=O)N3C[C@H](OCCOC)C[C@H]3c3nc(-c4ccccc4)c[nH]3)CC[C@]3(C)[C@H](CC[C@@H]4[C@@]5(C)CC[C@H](OC(=O)CC(C)(C)C(=O)O)C(C)(C)[C@@H]5CC[C@]43C)[C@@H]12	15400

---

ASSAY_DETAILS: Single dose oral pharmacokinetic study
Type: in vivo
ASSAY_SETUP: mouse, mice, 30 mg/kg, plasma, read-out: Mice oral PK @30 mg/kg Cmax

MOLECULE	Cmax (ng/mL)
C=C(C)[C@@H]1CC[C@]2(C(=O)N3CCC[C@H]3c3nc(-c4ccccc4)co3)CC[C@]3(C)[C@H](CC[C@@H]4[C@@]5(C)CC[C@H](OC(=O)[C@H]6C[C@@H](C(=O)O)C6(C)C)C(C)(C)[C@@H]5CC[C@]43C)[C@@H]12	7090
Cc1nnc(C(C)C)n1C1CC2CCC(C1)N2C(=O)[C@]12CC[C@@H](C3(C)CC3)[C@@H]1[C@H]1CC[C@@H]3[C@@]4(C)CC[C@H](OC(=O)[C@H]5C[C@@H](C(=O)O)C5(C)C)C(C)(C)[C@@H]4CC[C@@]3(C)[C@]1(C)CC2 (some centres unmarked)	6520

---

ASSAY_DETAILS: Single dose oral pharmacokinetic study
Type: in vivo
ASSAY_SETUP: mouse, mice, 30 mg/kg, plasma, read-out: Mice oral PK @30 mg/kg AUC 0-t

MOLECULE	UOM	AUC(0-t)
C=C(C)[C@@H]1CC[C@]2(C(=O)N3CCC[C@H]3c3ncc[nH]3)CC[C@]3(C)[C@H](CC[C@@H]4[C@@]5(C)CC[C@H](OC(=O)[C@H]6C[C@@H](C(=O)O)C6(C)C)C(C)(C)[C@@H]5CC[C@]43C)[C@@H]12 [Compound 36]	µg·h/mL	158
CC1([C@@H]2CC[C@]3(C(=O)N4CCC(c5ncc(-c6ccccc6)[nH]5)CC4)CC[C@]4(C)[C@H](CC[C@@H]5[C@@]6(C)CC[C@H](OC(=O)[C@H]7C[C@@H](C(=O)O)C7(C)C)C(C)(C)[C@@H]6CC[C@]54C)[C@@H]23)CC1 [Compound 57]	µg·h/mL	66.4
C=C(C)[C@@H]1CC[C@]2(C(=O)N3CCC[C@H]3c3nc(C(C)C)c[nH]3)CC[C@]3(C)[C@H](CC[C@@H]4[C@@]5(C)CC[C@H](OC(=O)[C@H]6C[C@@H](C(=O)O)C6(C)C)C(C)(C)[C@@H]5CC[C@]43C)[C@@H]12 [Compound 14]	µg·h/mL	437
COCCOc1ccc(-c2cnc([C@@H]3CCCN3C(=O)[C@]34CC[C@@H](C5(C)CC5)[C@@H]3[C@H]3CC[C@@H]5[C@@]6(C)CC[C@H](OC(=O)CC(C)(C)C(=O)O)C(C)(C)[C@@H]6CC[C@@]5(C)[C@]3(C)CC4)[nH]2)cc1 [Compound 66]	µg·h/mL	62.1
C=C(C)[C@@H]1CC[C@]2(C(=O)N3C[C@H](OCCOC)C[C@H]3c3nc(C(C)(C)C)c[nH]3)CC[C@]3(C)[C@H](CC[C@@H]4[C@@]5(C)CC[C@H](OC(=O)[C@H]6C[C@@H](C(=O)O)C6(C)C)C(C)(C)[C@@H]5CC[C@]43C)[C@@H]12 [Compound 31]	µg·h/mL	195

---

ASSAY_DETAILS: Single dose oral pharmacokinetic study
Type: in vivo
ASSAY_SETUP: mouse, mice, 30 mg/kg, plasma, read-out: Mice oral PK @30 mg/kg AUC 0-t
PROPERTY_MEASURED: AUC(0-t) (µg·h/mL)

STRUCTURE	PROPERTY_MEASURED	OBSERVED_MEASUREMENT
C=C(C)[C@@H]1CC[C@]2(C(=O)N3C[C@H](OCCOC)C[C@H]3c3nc(-c4cccc(F)c4)c[nH]3)CC[C@]3(C)[C@H](CC[C@@H]4[C@@]5(C)CC[C@H](OC(=O)[C@H]6C[C@@H](C(=O)O)C6(C)C)C(C)(C)[C@@H]5CC[C@]43C)[C@@H]12	AUC(0-t)	1240
CC(C)(C)c1c[nH]c([C@@H]2CCCN2C(=O)[C@]23CC[C@@H](C4(C)CC4)[C@@H]2[C@H]2CC[C@@H]4[C@@]5(C)CC[C@H](OC(=O)[C@H]6C[C@@H](C(=O)O)C6(C)C)C(C)(C)[C@@H]5CC[C@@]4(C)[C@]2(C)CC3)n1	AUC(0-t)	375
C=C(C)[C@@H]1CC[C@]2(C(=O)N3C[C@H](O)C[C@H]3c3nc(-c4ccccc4)c[nH]3)CC[C@]3(C)[C@H](CC[C@@H]4[C@@]5(C)CC[C@H](OC(=O)[C@H]6C[C@@H](C(=O)O)C6(C)C)C(C)(C)[C@@H]5CC[C@]43C)[C@@H]12	AUC(0-t)	57.5
CC1([C@@H]2CC[C@]3(C(=O)N4CCC[C@H]4c4ncc(-c5cccc(F)c5)[nH]4)CC[C@]4(C)[C@H](CC[C@@H]5[C@@]6(C)CC[C@H](OC(=O)[C@H]7C[C@@H](C(=O)O)C7(C)C)C(C)(C)[C@@H]6CC[C@]54C)[C@@H]23)CC1	AUC(0-t)	358
CC(C)(CC(=O)O)CC(=O)O[C@H]1CC[C@]2(C)[C@H]3CC[C@@H]4[C@H]5[C@H](C6(C)CC6)CC[C@]5(C(=O)N5CCC[C@H]5c5ncc(-c6ccc(F)cc6)[nH]5)CC[C@@]4(C)[C@]3(C)CC[C@H]2C1(C)C	AUC(0-t)	172
C=C(C)[C@@H]1CC[C@]2(C(=O)N3CCC[C@H]3c3ncc(C(F)(F)F)[nH]3)CC[C@]3(C)[C@H](CC[C@@H]4[C@@]5(C)CC[C@H](OC(=O)[C@H]6C[C@@H](C(=O)O)C6(C)C)C(C)(C)[C@@H]5CC[C@]43C)[C@@H]12	AUC(0-t)	417
C=C(C)[C@@H]1CC[C@]2(C(=O)N3CCC[C@H]3c3nc(C(C)(C)C)co3)CC[C@]3(C)[C@H](CC[C@@H]4[C@@]5(C)CC[C@H](OC(=O)[C@H]6C[C@@H](C(=O)O)C6(C)C)C(C)(C)[C@@H]5CC[C@]43C)[C@@H]12	AUC(0-t)	395
